Data credit: patent US11884747B2

# Reported Conditions: at the stated concentration; indicator paper
Consider the following molecules and their measured pH of the peptide solution in PBS readings.
Assay Metric: pH of the peptide solution in PBS

# Molecule, Assay Metric, Assay Result
rows = [
    ("CC[C@H](C)[C@H](NC(=O)[C@@H](Cc1ccc(O)cc1)NC(=O)CCOCCOCCOCCOCCOCCOCCOCCOCCOCCOCCOCCOC)C(=O)N[C@H]1CSSC[C@@H](C(=O)N(C)[C@H](C(N)=O)[C@@H](C)CC)NC(=O)[C@H](CCCNC(=N)N)NC(=O)[C@H](Cc2c[nH]cn2)NC(=O)[C@H](C)NC(=O)CN(C)C(=O)[C@H](Cc2c[nH]c3ccccc23)NC(=O)[C@H](CC(=O)O)NC(=O)[C@H](CCC(N)=O)NC(=O)[C@H](Cc2cn(C)c3ccccc23)NC(=O)[C@H](C(C)C)NC1=O [mPEG(528)-Cp40]", "pH of the peptide solution in PBS", "7-7.5"),
    ("CC[C@H](C)[C@H](NC(=O)[C@@H](Cc1ccc(O)cc1)NC(=O)CCOCCOCCOCCOCCOCCOCCOCCOCCOCCOCCOCCOCCOCCOCCOCCOCCOCCOCCOCCOCCOCCOCCOCCOC)C(=O)N[C@H]1CSSC[C@@H](C(=O)N(C)[C@H](C(N)=O)[C@@H](C)CC)NC(=O)[C@H](CCCNC(=N)N)NC(=O)[C@H](Cc2c[nH]cn2)NC(=O)[C@H](C)NC(=O)CN(C)C(=O)[C@H](Cc2c[nH]c3ccccc23)NC(=O)[C@H](CC(=O)O)NC(=O)[C@H](CCC(N)=O)NC(=O)[C@H](Cc2cn(C)c3ccccc23)NC(=O)[C@H](C(C)C)NC1=O [mPEG(1056)-Cp40]", "pH of the peptide solution in PBS", "7-7.5"),
    ("CC[C@H](C)[C@H](NC(=O)[C@H](N)Cc1ccc(O)cc1)C(=O)N[C@H]1CSSC[C@@H](C(=O)N(C)[C@H](C(=O)N[C@@H](CCCCN)C(=O)N[C@@H](CCCCN)C(N)=O)[C@@H](C)CC)NC(=O)[C@H](CCCNC(=N)N)NC(=O)[C@H](Cc2c[nH]cn2)NC(=O)[C@H](C)NC(=O)CN(C)C(=O)[C@H](Cc2c[nH]c3ccccc23)NC(=O)[C@H](CC(=O)O)NC(=O)[C@H](CCC(N)=O)NC(=O)[C@H](Cc2cn(C)c3ccccc23)NC(=O)[C@H](C(C)C)NC1=O [Cp40-KK]", "pH of the peptide solution in PBS", "7-7.5"),
]
